Reference source for all entries: BindingDB's records for doi:10.1111/j.1747-0285.2007.00535.x

Please consider the recorded pKi for UniProtKB P07900 in what follows.
Numbers only, as −log10 of the molar value.

| Compound | Value Type | Meas Value |
| --- | --- | --- |
| Nc1nc(Cl)cc(-c2ccc(Cl)cc2Cl)n1 [HSP90 Inhibitor, 5] | pKi | 7.22 |

Form field pKi, entry Cc1cc(C=Cc2ccccc2/C=N/N2CCOC2=O)nc(N)n1 [HSP90 Inhibitor, 7] : 5.40
